Origin of the recorded values: ChEMBL document CHEMBL3217601

- MEASUREMENT_NOTES: Intrinsic clearance in human liver microsomes assessed as glucuronidation in absence of NADPH and presence of microsomal activator Brij58 and UDPGA
Below, each of the molecules is paired with its reported microsomal CLint value.
PARAMETER_MEASURED: microsomal CLint (µL/min/mg)

> print(dat)
                                   molecule  parameter.measured  result.unit  observed.measurement
1  CS(=O)(=O)Nc1cc([C@@H](O)CNCCCCCCCCCN2CCC(OC(=O)Nc3ccccc3-c3ccc(F)cc3O)CC2)ccc1O    microsomal CLint    µL/min/mg                   8.8
2  CS(=O)(=O)Nc1cc([C@@H](O)CNCCCCCCCCCN2C3CCC2CC(OC(=O)Nc2ccccc2-c2ccc(O)c(Cl)c2)C3)ccc1O (some centres not stated)    microsomal CLint    µL/min/mg                     8
3  CS(=O)(=O)Nc1cc([C@@H](O)CNCCCCCCCCN2CCC(OC(=O)Nc3ccccc3-c3ccc(O)c(Cl)c3)CC2)ccc1O    microsomal CLint    µL/min/mg                    17
4  CS(=O)(=O)Nc1cc([C@@H](O)CNCCCCCCCCCN2CCC(OC(=O)Nc3ccccc3-c3ccccc3O)CC2)ccc1O    microsomal CLint    µL/min/mg                    17
5  Cc1ccc(-c2ccc(O)c(Cl)c2)c(NC(=O)OC2CCN(CCCCCCCCCNC[C@H](O)c3ccc(O)c(NS(C)(=O)=O)c3)CC2)c1    microsomal CLint    µL/min/mg                    29
6  CS(=O)(=O)Nc1cc([C@@H](O)CNCCCCCCCCCN2CCC(OC(=O)Nc3ccccc3-c3cc(F)c(O)cc3F)CC2)ccc1O    microsomal CLint    µL/min/mg                    13
7  CS(=O)(=O)Nc1cc([C@@H](O)CNCCCCCCCCCN2CC[C@@H](OC(=O)Nc3ccccc3-c3ccc(O)c(Cl)c3)C2)ccc1O    microsomal CLint    µL/min/mg                    39
